Reference source for all entries: the supplement of paper PMC10567573

# ASSAY: protein stability index of a GFP-peptide fusion (GPS, HEK-293T) (PSI 1-6); higher = more stable;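 note: 24-mer peptide tiles fused after GFP, lentivirally expressed, FACS-sorted into six equal bins by GFP/DsRed ratio, decoded by Illumina sequencing, PSI is the read-weighted mean bin number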
# CONDITION_DETAILS: treatment: DMSO; c terminus: a fixed tail appended
Response key: true means protein stability index >= 4; false means protein stability index < 4.

| ORDERED_RESIDUES | CAT |
| --- | --- |
| QRIALRLGNGNDKKEMNKSDLNTN [KMT2E] | true |
| NQVVSSTNGELNTDDPTAGRSNAP [CSNK1G3] | true |
| NDTKKMYAMKYMNKQKCVERNEVR [STK32A] | false |
| NAEMVQQTTYLEDRPMFMLQCAME [LOXL2] | false |
| MQENITKVIERGERLDELQDKSES [VAMP4] | true |
| PPAALESSDSANTTIEDEDAKARK [CAMK2B] | true |
| DFHYCDREHVCRKDQRNPPSLGRV [RBMY1A1] | false |
| LQVRGYPEEKKEEEGSANRRPEDQ [CHGA] | true |
| MEIMEAYSVARQFNLTPPICEQAE [KCNAB2] | false |
| LDSSEGSSQEDEDLGLSEGSSQDS [SPANXN3] | true |
| RPATAADCSDILRLIKELAKYEYM [SAT1] | false |
| DLAALKQRLEEETRKREDAEHNLV [PRPH] | true |
| ADPLRVSSRDKLTEMAASSQGNFE [FUNDC2] | true |
| VDNIDMIDGDGDDMERFMEEMREL [BEX5] | true |
| LRRKEQLWEKLAKQGELPREVRRA [NOP53] | false |
| VIVPKEEGVISVSEDRTVRVWLKR [WDFY2] | false |
| HYFHSISYKIEEISPSTLKNSLFP [KCNK9] | false |
| EELRQEWEAKQEKIKSEEIEITFS [FAM50A] | true |
| LPKELPADAVNLTIPASLDLSPLL [PLAGL1] | false |
| FGGPFVESSTREVVFPYTSKSCMR [RHOBTB2] | false |
| NQGLNVMVWNQNGKSPSITFEYTL [ADAMTSL2] | false |
| ICARACNATLTQYQLLATHVPTVW [RHOBTB2] | false |
| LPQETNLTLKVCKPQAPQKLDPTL | false |
| LYPNPRERSSFYSCAGGRLFQQSC [CHIT1] | false |
| LIPGDAYTDYVATRWYRAPELLVG [CDKL4] | false |
| TLCQFPETLLGDPKRRMRYFDPLR [KCNA3] | false |

----------
# ASSAY: protein stability index of a GFP-peptide fusion (GPS, HEK-293T) (PSI 1-6); higher = more stable
# CONDITION_DETAILS: treatment: DMSO; c terminus: native
MEASURED_PROPERTY: protein stability index

| ORDERED_RESIDUES | EXPERIMENTAL_RESULT |
| --- | --- |
| RDHIPRGKEELESLGGGKTPPGR [MOG] | 3.87 |
| KVNLCGHWYYSKACCRSCRPPHS [ADAMTSL2] | 2.86 |
| TKSHSFRAMCQNGKLVYPSCEEK [CFHR2] | 3.81 |

----------
Listing: protein stability index of selected sequences
# ASSAY: protein stability index of a GFP-peptide fusion (GPS, HEK-293T) (PSI 1-6); higher = more stable
# CONDITION_DETAILS: treatment: DMSO; c terminus: a fixed tail appended

| ORDERED_RESIDUES | protein stability index |
| --- | --- |
| GVYSMPAGTKVFEVPEMSPVTCCD [TLE6] | 3.84 |
| SEEAVQKLATCYFFTVEFGLCKQD [TPH1] | 2.3 |
| DKRRDLAHLAAEVEGKCLQSGFEM [TRIM39] | 3.97 |
| VLRVEQQPHLPLLSTLAGIRVMVH [SCNN1D] | 2.31 |
| AAPGALGSLHAGGARLVAACSAWL [AUH] | 2.65 |
| DLSSESSIKKKFLKRKGKTDSPWI [EHMT1] | 3.42 |
| MLTTRVFSLVGKRAISTSVCVRAH [COX4I1] | 2.56 |
| KRKSEVERAVKRMRHLSTGTMTGL [MATN2] | 3.31 |
| QIDQIKRHSNVVILTTSNITEKID [TRIP13] | 3.21 |
| YQASAMMVESRYALLIVDSATALY [RAD51] | 2.94 |
| ASESEHIPKPQSTGWFGGGFTSYL [MIA2] | 2.4 |
| KAMFSGRVEVLTDAGGWVLIDRSG [KCTD13] | 2.19 |
| RFQLLYVACGMVHLLIPELGACVA [DNAAF3] | 2.97 |
| RALQAALAESGGSPDVLQMLKIHR [TRADD] | 2.61 |
| NYLAEHCPPLHIPGSMSEVQELCK [TNNI2] | 3.91 |
| PQPLSFKEPPLLLGVLHPNTKLRQ [APMAP] | 3.48 |
| SLLNKKADGVKPQTNSTKNSAAAT [CAMK2B] | 4.43 |
| LVLVVNTLRRIQASMAPAAALPPV [SERTAD1] | 2.35 |
| SWNSQSSLLDVQRVPSFESFEDDC [ETS2] | 4.84 |
| PEEGQQPWLCGESFTLADVSLAVT [GDAP1] | 3.27 |
| RQITQVYGFYDECLRKYGNANVWK [PPP2CA] | 2.19 |
| INYLGAESLRPLVQTPPGGSEVVP [IKZF1] | 4.07 |
| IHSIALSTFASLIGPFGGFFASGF [CDS2] | 3.12 |
| LRFLHENQLTHTDLKPENILFVNS [CLK3] | 2.49 |
| DYSDHPSGGSYRDSYESYGNSRSA [RBMX] | 4.43 |
| DDAGTSGGPSSPPSDPPAMSPGPL [C2CD2L] | 5.38 |
| KFSHSGRYMLTRDYLTVKVWDLNM [PPP2R2C] | 2.35 |
